# tested_on: Human PDE7 (Homo sapiens)
# Construct: Human PDE7 was partially purified from the cell line HUT-78; endogenous in cells
# Sequence (Q13946 whole entry): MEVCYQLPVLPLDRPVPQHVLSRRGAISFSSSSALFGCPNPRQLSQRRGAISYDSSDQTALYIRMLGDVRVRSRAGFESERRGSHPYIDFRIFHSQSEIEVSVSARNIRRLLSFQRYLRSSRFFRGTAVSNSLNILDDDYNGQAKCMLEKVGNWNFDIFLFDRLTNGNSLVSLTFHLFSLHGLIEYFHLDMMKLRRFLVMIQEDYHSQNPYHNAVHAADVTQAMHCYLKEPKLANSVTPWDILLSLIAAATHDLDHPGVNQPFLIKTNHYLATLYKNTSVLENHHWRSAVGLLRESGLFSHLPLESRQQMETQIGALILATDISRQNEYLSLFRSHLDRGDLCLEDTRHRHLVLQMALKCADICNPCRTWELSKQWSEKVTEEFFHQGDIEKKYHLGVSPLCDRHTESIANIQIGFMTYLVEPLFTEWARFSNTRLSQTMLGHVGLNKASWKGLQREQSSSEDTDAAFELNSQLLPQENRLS
# test_protocol: PDE7 enzymatic test ([3H]-cAMP hydrolysis, TLC on PEI cellulose)
# details: human PDE7 partially purified from HUT-78; cAMP concentration about 4 times the Km; 10 μM rolipram present
attribute_measured: IC50
# number then unit; no other words

Observe how each entry below is paired with its result.
COc1ccc(Cn2c(=O)c3cc(CO)ccc3n(C3CCOCC3)c2=O)cc1OC [Compound 45]    61 nM
COc1ccc(Cn2c(=O)c3cc(OCC#N)ccc3n(C3CCSCC3)c2=O)cc1OC [Compound 11]    5.5 nM

# context switch: different molecule, same IC50
Entry COc1ccc(Cn2c(=O)c3cc(OCC#N)ccc3n(C3CC[S+]([O-])CC3)c2=O)cc1OC (single isomer, unassigned; isomer 1) [Compound 17] : reported IC50 = ?
6.1 nM

Values compiled from patent US8722659B2.
